Experiment: NCI Yeast Anticancer Drug Screen. Data for the rad50 strain (AID 155)
Conditions: S. cerevisiae rad50 strain growth inhibition; at 50.0 µM (retest, dose inferred, filed as 5.0)
Compounds without any hit were thinned out: in the full panel of roughly 79,000, 15% have a hit. Calls of active or inactive are those of the source. No stated cut-off is given here; in the data, active means growth inhibition above about 70%; inactive means the rest.
Respond with a class label; see active, inactive

Problem: Hello, I am checking results. What call was entered for CC[C@@]1(OC(=O)CCC(=O)O)C(=O)OCc2c1cc1n(c2=O)Cc2cc3ccccc3nc2-1 ?
Result: active

Problem: Hello, I am checking results. What call was entered for CCC(NC(C)c1ccccc1)C(=O)c1ccc(OCc2ccccc2)c(OCc2ccccc2)c1 (stereo unspecified) ?
Result: inactive

Problem: Hello, I am checking results. What call was entered for Clc1c(Cl)c(Cl)c2c(nnn2C2CCCO2)c1Cl (stereo unspecified) ?
Result: inactive

Problem: Hello, I am checking results. What call was entered for CCN1/C(=C/c2ccc3ccccc3[n+]2CC)C=Cc2ccccc21 ?
Result: active

Problem: Hello, I am checking results. What call was entered for Oc1ccccc1N=Cc1ccc(Cl)cc1 ?
Result: inactive

Problem: Hello, I am checking results. What call was entered for O=[N+]([O-])c1c(/C=N/Nc2ccccc2)oc(-c2ccc3c(c2)OCO3)c1-c1ccc2c(c1)OCO2 ?
Result: active
